Values were extracted from patent US8524691B2.

# Tested on: S. aureus ATCC 29213
# ASSAY REMARKS: Antibacterial susceptibility (MIC), NCCLS broth microdilution
# Type: cell-based
# CONDITIONS: CAMHB, 37° C., 18 h
Catalogue of Minimum inhibitory concentration, S. aureus ATCC 29213 values
Report only the number, with the unit µg/mL understood.

Reference set (2 entries):
CCCC(=O)OCCN(CCC(P(=O)(O)O)P(=O)(O)O)CC(=O)O[C@@H]1[C@@H](C)[C@@H](O)[C@@H](C)[C@H](OC(C)=O)[C@H](C)[C@@H](OC)/C=C/O[C@@]2(C)Oc3c(C)c(O)c4c(c3C2=O)C2=NC3(CCN(CC(C)C)CC3)NC2=C(NC(=O)/C(C)=C\C=C\[C@@H]1C)C4=O :: 8
CCC(=O)OCOC(=O)N[C@@H](Cc1ccc(OCCCC(P(=O)(O)O)P(=O)(O)O)cc1)C(=O)N(C)CC(=O)O[C@@H]1[C@@H](C)[C@@H](O)[C@@H](C)[C@H](OC(C)=O)[C@H](C)[C@@H](OC)/C=C/O[C@@]2(C)Oc3c(C)c(O)c4c(c3C2=O)C2=NC3(CCN(CC(C)C)CC3)NC2=C(NC(=O)/C(C)=C\C=C\[C@@H]1C)C4=O.N.N :: 4

compound CO[C@H]1/C=C/O[C@@]2(C)Oc3c(C)c(O)c4c(c3C2=O)C2=NC3(CCN(CC(C)C)CC3)NC2=C(NC(=O)/C(C)=C\C=C\[C@H](C)[C@H](OC(=O)CN(C)C(=O)CNC(=O)[C@@H](Cc2ccccc2)NC(=O)CNC(=O)CCC(P(=O)(O)O)P(=O)(O)O)[C@@H](C)[C@@H](O)[C@@H](C)[C@H](OC(C)=O)[C@@H]1C)C4=O.N.N [Compound 79a] , Minimum inhibitory concentration, S. aureus ATCC 29213 observed: 16

----------
# Assay type: in vitro ADME
# CONDITIONS: PBS, 24 h incubation, 37° C.
Catalogue of % Conversion (prodrug converted to parent drug after binding to bone) values
Report only the number, with the unit % understood.

Reference set (3 entries):
CCN(CC)CC.CO[C@H]1/C=C/O[C@@]2(C)Oc3c(C)c(O)c4c(c3C2=O)C2=NC3(CCN(CC(C)C)CC3)NC2=C(NC(=O)/C(C)=C\C=C\[C@H](C)[C@H](OC(=O)CN(C)C(=O)Nc2ccc(CC(P(=O)(O)O)P(=O)(O)O)cc2)[C@@H](C)[C@@H](O)[C@@H](C)[C@H](OC(C)=O)[C@@H]1C)C4=O [Compound 142b] :: 0.37
CCN(CC)CC.CCN(CC)CC.CO[C@H]1/C=C/O[C@@]2(C)Oc3c(C)c(O)c4c(c3C2=O)C2=NC3(CCN(CC(C)C)CC3)N(C(=O)OCc3ccc(OC(=O)CCCC(P(=O)(O)O)P(=O)(O)O)cc3)C2=C(NC(=O)/C(C)=C\C=C\[C@H](C)[C@H](O)[C@@H](C)[C@@H](O)[C@@H](C)[C@H](OC(C)=O)[C@@H]1C)C4=O :: 0.66
CO[C@H]1/C=C/O[C@@]2(C)Oc3c(C)c(O)c4c(c3C2=O)C2=NC3(CCN(CC(C)C)CC3)NC2=C(NC(=O)/C(C)=C\C=C\[C@H](C)[C@H](OC(=O)CN(C)CCOC(=O)CCC(P(=O)(O)O)P(=O)(O)O)[C@@H](C)[C@@H](O)[C@@H](C)[C@H](OC(C)=O)[C@@H]1C)C4=O :: 0.07

Let us move to another entry and its % Conversion (prodrug converted to parent drug after binding to bone).
compound "CCC(=O)OCOC(=O)N[C@@H](Cc1ccc(OCCCC(P(=O)(O)O)P(=O)(O)O)cc1)C(=O)N(C)CC(=O)O[C@@H]1[C@@H](C)[C@@H](O)[C@@H](C)[C@H](OC(C)=O)[C@H](C)[C@@H](OC)/C=C/O[C@@]2(C)Oc3c(C)c(O)c4c(c3C2=O)C2=NC3(CCN(CC(C)C)CC3)NC2=C(NC(=O)/C(C)=C\C=C\[C@@H]1C)C4=O.N.N" , % Conversion (prodrug converted to parent drug after binding to bone) observed: 0.02
